# study.system: P70S6K (T412E mutant) (Homo sapiens, UniProt P23443, T412E)
# Sequence (P23443 1-421 T412E limits assumed): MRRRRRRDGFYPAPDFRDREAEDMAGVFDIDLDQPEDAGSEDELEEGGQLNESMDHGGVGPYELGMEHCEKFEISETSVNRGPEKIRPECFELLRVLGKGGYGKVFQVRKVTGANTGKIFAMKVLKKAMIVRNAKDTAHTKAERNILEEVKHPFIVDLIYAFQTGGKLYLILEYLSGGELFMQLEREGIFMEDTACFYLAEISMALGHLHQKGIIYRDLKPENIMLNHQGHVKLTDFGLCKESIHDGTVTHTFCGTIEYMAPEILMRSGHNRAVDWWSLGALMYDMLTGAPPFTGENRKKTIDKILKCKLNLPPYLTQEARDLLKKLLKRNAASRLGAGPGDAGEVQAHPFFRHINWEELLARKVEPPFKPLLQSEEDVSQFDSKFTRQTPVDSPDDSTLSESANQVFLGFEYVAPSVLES
# measurement.description: p70S6K Enzyme Assay
# condition.parameters: 24 μM ATP, 90 min at 25° C., Caliper mobility shift
Exercise: for every item that follows, state its recorded pIC50.
Keep it numeric: pIC50 is minus log10 of the concentration in mol/L.

In: # input molecule: NC(=O)c1cccc2c(N[C@H](CN3CCC3)c3c(F)cccc3F)ncnc12 [Example 16] ; wanted: its pIC50
Out: 8.27

In: Fill in: pIC50 of N#Cc1cccc([C@@H](CN2CCC2)Nc2ncnc3c(C(N)=O)cccc23)c1 [Example 11] is ___
Out: 8.48

In: Report pIC50 for NC(=O)c1cccc2c(N[C@H](CN3CCC3)c3ccc(F)c(C(F)F)c3)ncnc12 [Example 44] please.
Out: 8.77

In: What value of pIC50 has been recorded for this entry: NC(=O)c1cccc2c(N[C@H](CN3CCC3)c3ccc(F)c(F)c3)ncnc12 [Example 4]
Out: 8.92

In: What value of pIC50 has been reported for the following molecule? NC(=O)c1cc(F)cc2c(N[C@H](CN3CCC3)c3ccc(F)c(C(F)(F)F)c3)ncnc12 [Example 45]
Out: 8.82

In: Requested read-out: pIC50. Entry: NC(=O)c1cccc2c(N[C@H](CN3CCC3)c3ccc4c(c3)OCO4)ncnc12 [Example 20]
Out: 8.77

In: Item NC(=O)c1cccc2c(N[C@H](CN3CCC3)c3cc(F)ccc3Cl)ncnc12 [Example 25] has what recorded pIC50?
Out: 8.51

In: So what does the record say about pIC50 for NC(=O)c1cccc2c(N[C@H](CN3CCC3)c3cc(F)c(F)cc3F)ncnc12 [Example 18] ?
Out: 8.42

In: Returns the measured pIC50 for the input molecule. Input: NC(=O)c1cc(F)cc2c(N[C@H](CN3CCC3)c3ccc(Cl)c(F)c3)ncnc12 [Example 51]
Out: 9.00

In: pIC50 lookup needed for NC(=O)c1cccc2c(N[C@H](CN3CCC3)c3ccc(OC(F)(F)F)cc3)ncnc12 [Example 30] , thanks.
Out: 8.77

In: What does the record list as pIC50 for NC(=O)c1cccc2c(N[C@H](CN3CCC3)c3ccc(F)cc3Cl)ncnc12 [Example 24] ?
Out: 8.06

In: Sample NC(=O)c1cccc2c(N[C@H](CN3CCC3)c3cccc(F)c3)ncnc12 [Example 1] — what was its pIC50?
Out: 8.25

In: Record request: pIC50 value, item NC(=O)c1cccc2c(N[C@H](CN3CCC3)c3ccc(Cl)cc3F)ncnc12 [Example 14]
Out: 8.96

In: So what does the record say about pIC50 for COc1cc([C@@H](CN2CCC2)Nc2ncnc3c(C(N)=O)cccc23)cc(F)c1F [Example 40] ?
Out: 6.89

In: # get_value(readout='pIC50', item= NC(=O)c1cccc2c(N[C@H](CN3CCC3)c3cccc(Br)c3)ncnc12 [Example 13] )
Out: 9.52

In: Given COc1cc(C(N)=O)c2ncnc(N[C@H](CN3CCC3)c3ccc(F)c(C(F)(F)F)c3)c2c1 [Example 47] , state its recorded pIC50.
Out: 8.66

In: Report pIC50 for NC(=O)c1cccc2c(N[C@H](CN3CCC3)c3cccc(Cl)c3)ncnc12 [Example 2] please.
Out: 8.96

The values you see were collected from patent US8946247B2.
